system: S. aureus; test: Minimum Inhibitory Concentration (MIC), inhibition of growth of S. aureus in vitro; format: cell-based; conditions: Staphylococcus aureus
Consider the following compounds; for each one, report its MIC.
Give bare numbers, in µg/mL.

Example cases with answers are listed next.
COc1ccc(/C=C\C(=O)C2C(=O)c3ccccc3C2=O)cc1	100
CN(C)c1ccc(/C=C2\SC(=S)N(C(Cc3ccccc3)C(=O)O)C2=O)cc1 (centres unmarked)	12.5
Cc1ccc(Nc2nc3nonc3nc2N)c(C)c1	12.5
CCN1CCc2c(sc(NC(=O)Nc3ccc(Cl)cc3)c2C(N)=O)C1	100

Here is another compound to look at.
Which measured MIC value corresponds to O=C1c2ccccc2-c2onc3ccc(Cl)c1c23 ?
6.25
